Biological target: IGFBP-3 (Homo sapiens)
Assay: BIAcore competition assay, IGFBP-3 binding to immobilized IGF-I
Conditions: bp3-01-ox variants by BIAcore competition assay; read-out: IGF-I Inhibition IC50
pIC50: −log10 of the molar value. No end group written: not given here.
READOUT_LABEL: pIC50

Input line: Answer with the recorded pIC50 of WPVAEWYLCN [bp3-24] only.
Output line: < 3.00

----------
Target: IGFBP-3 (Homo sapiens)
Experiment: BIAcore competition assay, IGFBP-3 binding to immobilized IGF-I
Conditions: 40 nM IGFBP-3; 400 to 800 RU immobilized IGF-I; read-out: BIAcore Assay IC50, inhibition of IGF-I binding to IGFBP-3
Positions of bridges follow the written chain, without caps; N, C: chain ends. Residues, ends and D or L forms follow the SMILES beside them.
READOUT_LABEL: IC50 (µM)
Entry rule: numbers only, all in µM.

Input line: Answer with the recorded IC50 of CC[C@H](C)[C@@H]1NC(=O)[C@H](C(C)C)NC(=O)[C@H](Cc2ccc(O)cc2)NC(=O)CNC(=O)[C@@H]2CCCN2C(=O)CNC(=O)[C@H](CCC(=O)O)NC(=O)[C@H](Cc2ccccc2)NC(=O)[C@@H](NC(=O)[C@H](CCC(=O)O)NC(=O)[C@H](CO)NC(=O)[C@H](CCC(=O)O)NC(=O)[C@@H](N)CCC(=O)O)CSSC[C@@H](C(=O)NCC(=O)N[C@@H](CC(C)C)C(=O)N[C@H](C(=O)NCC(=O)O)C(C)C)NC1=O [BP3-4B3.3] (H-EESECFEGPGYVICGLVG-OH; disulfide 5-14; N-terminus and C-terminus assumed) only.
Output line: 80

Input line: Answer with the recorded IC50 of CC(C)C[C@@H]1NC(=O)[C@H](Cc2ccc(O)cc2)NC(=O)[C@H](Cc2c[nH]c3ccccc23)NC(=O)[C@H](CCC(=O)O)NC(=O)[C@H](C)NC(=O)[C@H](C(C)C)NC(=O)[C@@H]2CCCN2C(=O)[C@H](Cc2c[nH]c3ccccc23)NC(=O)[C@@H](NC(=O)[C@@H](N)C(C)C)CSSC[C@@H](C(=O)N[C@@H](CC(N)=O)C(=O)O)NC1=O [BP17] (H-VCWPVAEWYLCN-OH; disulfide 2-11; N-terminus and C-terminus assumed) only.
Output line: 9

Input line: Answer with the recorded IC50 of CC(C)C[C@@H]1NC(=O)[C@H](Cc2ccc(O)cc2)NC(=O)[C@H](Cc2c[nH]c3ccccc23)NC(=O)[C@H](CCC(=O)O)NC(=O)[C@H](C)NC(=O)[C@H](C(C)C)NC(=O)[C@@H]2CCCN2C(=O)[C@H](Cc2c[nH]c3ccccc23)NC(=O)[C@@H](NC(=O)[C@@H](NC(=O)[C@H](CCC(=O)O)NC(=O)[C@H](CCC(=O)O)NC(=O)[C@@H](N)CO)C(C)C)CSSC[C@@H](C(=O)N[C@@H](CC(N)=O)C(=O)O)NC1=O [BP15] (H-SEEVCWPVAEWYLCN-OH; disulfide 5-14; N-terminus and C-terminus assumed) only.
Output line: 0.75

----------
Target: IGFBP-3 (Homo sapiens, UniProt P17936)
Sequence (P17936 28-291): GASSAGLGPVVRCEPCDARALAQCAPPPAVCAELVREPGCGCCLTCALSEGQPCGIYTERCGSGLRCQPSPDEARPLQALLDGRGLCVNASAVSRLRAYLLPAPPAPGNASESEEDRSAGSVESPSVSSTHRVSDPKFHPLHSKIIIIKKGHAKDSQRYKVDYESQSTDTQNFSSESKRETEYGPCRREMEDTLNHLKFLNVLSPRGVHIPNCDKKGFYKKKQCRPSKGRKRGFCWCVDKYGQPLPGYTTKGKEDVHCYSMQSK
Test: BIAcore competition assay, IGFBP-3 binding to immobilized IGF-I
Settings: bp3-01-ox variants by BIAcore competition assay; read-out: IGF-I Inhibition IC50
Positions of bridges follow the written chain, without caps; N, C: chain ends. Residues, ends and D or L forms follow the SMILES beside them.
READOUT_LABEL: IC50 (nM)
Entry rule: numbers only, all in nM.

Input line: Answer with the recorded IC50 of CC(C)C[C@@H]1NC(=O)[C@H](Cc2ccc(O)cc2)NC(=O)[C@H](Cc2c[nH]c3ccccc23)NC(=O)[C@H](CCC(=O)O)NC(=O)[C@H](C)NC(=O)[C@H](C(C)C)NC(=O)[C@@H]2CCCN2C(=O)[C@H](Cc2c[nH]c3ccccc23)NC(=O)[C@@H](NC(=O)[C@@H](NC(=O)[C@H](CCC(=O)O)NC(=O)[C@@H]2CCCN2C(=O)CN)[C@@H](C)O)CSSC[C@@H](C(=O)N[C@@H](CC(N)=O)C(=O)O)NC1=O [bp3-41] (H-GPETCWPVAEWYLCN-OH; disulfide 5-14; N-terminus and C-terminus assumed) only.
Output line: 4000

Input line: Answer with the recorded IC50 of CC(C)C[C@@H]1NC(=O)[C@H](Cc2ccc(O)cc2)NC(=O)[C@H](Cc2c[nH]c3ccccc23)NC(=O)[C@H](CCC(=O)O)NC(=O)[C@H](C)NC(=O)[C@H](C(C)C)NC(=O)[C@@H]2CCCN2C(=O)[C@H](Cc2c[nH]c3ccccc23)NC(=O)[C@@H](NC(=O)[C@@H](NC(=O)[C@H](CCC(=O)O)NC(=O)[C@H](CCC(=O)O)NC(=O)[C@@H](N)CO)C(C)C)CSSC[C@@H](C(=O)N[C@@H](CC(N)=O)C(=O)O)NC1=O [BP15] (H-SEEVCWPVAEWYLCN-OH; disulfide 5-14; N-terminus and C-terminus assumed) only.
Output line: 720

Input line: Answer with the recorded IC50 of CC(=O)N[C@@H](CO)C(=O)N[C@@H](CCC(=O)O)C(=O)N[C@@H](CCC(=O)O)C(=O)N[C@H](C(=O)N[C@H]1CSSC[C@@H](C(=O)N[C@@H](CC(N)=O)C(N)=O)NC(=O)[C@H](CC(C)C)NC(=O)[C@H](Cc2ccc(O)cc2)NC(=O)[C@H](Cc2c[nH]c3ccccc23)NC(=O)[C@H](CCC(=O)O)NC(=O)[C@H](C)NC(=O)[C@H](C(C)C)NC(=O)[C@@H]2CCCN2C(=O)[C@H](Cc2c[nH]c3ccccc23)NC1=O)C(C)C [bp3-40] (Ac-SEEVCWPVAEWYLCN-NH2; disulfide 5-14 (inferred)) only.
Output line: 660

Input line: Answer with the recorded IC50 of CC(C)C[C@@H]1NC(=O)[C@H](Cc2ccc(O)cc2)NC(=O)[C@H](Cc2c[nH]c3ccccc23)NC(=O)[C@H](CCC(=O)O)NC(=O)[C@H](C)NC(=O)[C@H](C(C)C)NC(=O)[C@@H]2CCCN2C(=O)[C@H](Cc2c[nH]c3ccccc23)NC(=O)[C@@H](NC(=O)[C@@H](NC(=O)[C@H](CCC(=O)O)NC(=O)[C@@H](N)CCC(=O)O)C(C)C)CSSC[C@@H](C(=O)N[C@@H](CC(N)=O)C(=O)O)NC1=O [bp3-28] (H-EEVCWPVAEWYLCN-OH; disulfide 4-13 (inferred); N-terminus and C-terminus assumed) only.
Output line: 5400
